assayed system: T1, HLA-DR DRB1*0404 (human)
T1 chain 1: not shown
T1 chain 2: not shown
assay protocol: radioligand inhibition, purified HLA-DR
run conditions: remark: other sources report otherwise
assay metric: log10(IC50) (log10 of the value in nM)
Base-10 log of IC50, unit nM.

Item LLTFWNPPTTAKLTI [CEA.24 peptide 9019.0105] has what recorded log10(IC50)?
1.72

Thanks! And GVTVWELMTFGAKPY [Peptide 9019.0090] ?
0.61

Thanks! And TAKLTIESTPFNVAE [CEA.33 peptide 9019.0106] ?
1.61

Thanks! And HNQVRQVPLQRLRIV [Her/neu.88] ?
1.89

Thanks! And TTPVTGASPGGLREL [Her2/neu.126] ?
2.83

Thanks! And LQRYSEDPTVPLPSE [Peptide 9019.0099] ?
4.12

Thanks! And APTISPLNTSYRSGE [CEA.239 peptide 9919.0121] ?
1.60

Origin of the recorded values: patent US20100310640A1
